All figures here come from ChEMBL document CHEMBL4308911.

Assay: Drug uptake lysosome of in human HeLa cells at 10 uM after 1 hr by Lyso tracker red-based confocal microscopic analysis
Type: ADME, subcellular
Measurement Kind: Drug uptake

{"Chemical Structure": "N#C/C(=C\\c1ccc(-c2ccc(-c3ccc(N(c4ccccc4)c4ccccc4)cc3)s2)s1)C(=O)O", "Measurement Kind": "Drug uptake", "Result": "Active"}
{"Chemical Structure": "COC(=O)/C(C#N)=C/c1ccc(-c2ccc(-c3ccc(N(c4ccccc4)c4ccccc4)cc3)s2)s1", "Measurement Kind": "Drug uptake", "Result": "Not Active"}
{"Chemical Structure": "N#C/C(=C\\c1ccc(-c2ccc(-c3ccc(N(c4ccccc4)c4ccccc4)cc3)s2)s1)C(N)=O", "Measurement Kind": "Drug uptake", "Result": "Active"}
{"Chemical Structure": "CC(C)(C)OC(=O)/C(C#N)=C/c1ccc(-c2ccc(-c3ccc(N(c4ccccc4)c4ccccc4)cc3)s2)s1", "Measurement Kind": "Drug uptake", "Result": "Not Active"}
{"Chemical Structure": "O=Cc1ccc(-c2ccc(-c3ccc(N(c4ccccc4)c4ccccc4)cc3)s2)s1", "Measurement Kind": "Drug uptake", "Result": "Not Active"}

---

Assay: Drug uptake mitochondria of in human HeLa cells at 10 uM after 1 hr by Mito tracker red-based confocal microscopic analysis
Assay type: ADME
Measurement Kind: Drug uptake

{"Chemical Structure": "CC(C)(C)OC(=O)/C(C#N)=C/c1ccc(-c2ccc(-c3ccc(N(c4ccccc4)c4ccccc4)cc3)s2)s1", "Result": "Not Active"}
{"Chemical Structure": "N#C/C(=C\\c1ccc(-c2ccc(-c3ccc(N(c4ccccc4)c4ccccc4)cc3)s2)s1)C(N)=O", "Result": "Active"}
{"Chemical Structure": "N#C/C(=C\\c1ccc(-c2ccc(-c3ccc(N(c4ccccc4)c4ccccc4)cc3)s2)s1)C(=O)O", "Result": "Active"}
{"Chemical Structure": "COC(=O)/C(C#N)=C/c1ccc(-c2ccc(-c3ccc(N(c4ccccc4)c4ccccc4)cc3)s2)s1", "Result": "Not Active"}
{"Chemical Structure": "O=Cc1ccc(-c2ccc(-c3ccc(N(c4ccccc4)c4ccccc4)cc3)s2)s1", "Result": "Not Active"}

---

Overview of reported IC50 at 48 h across a group of compounds:
Experiment: Dark toxicity against human HeLa cells assessed as reduction in cell viability after 48 hrs by MTT assay
Assay type: cell-based

{"Chemical Structure": "CC(C)(C)OC(=O)/C(C#N)=C/c1ccc(-c2ccc(-c3ccc(N(c4ccccc4)c4ccccc4)cc3)s2)s1", "Modifier Sign": ">", "IC50 at 48 h [µM]": 100}
{"Chemical Structure": "COC(=O)/C(C#N)=C/c1ccc(-c2ccc(-c3ccc(N(c4ccccc4)c4ccccc4)cc3)s2)s1", "Modifier Sign": ">", "IC50 at 48 h [µM]": 100}
{"Chemical Structure": "N#C/C(=C\\c1ccc(-c2ccc(-c3ccc(N(c4ccccc4)c4ccccc4)cc3)s2)s1)C(N)=O", "Modifier Sign": "=", "IC50 at 48 h [µM]": 63.1}
{"Chemical Structure": "O=Cc1ccc(-c2ccc(-c3ccc(N(c4ccccc4)c4ccccc4)cc3)s2)s1", "Modifier Sign": "=", "IC50 at 48 h [µM]": 88.9}
{"Chemical Structure": "N#C/C(=C\\c1ccc(-c2ccc(-c3ccc(N(c4ccccc4)c4ccccc4)cc3)s2)s1)C(=O)O", "Modifier Sign": "=", "IC50 at 48 h [µM]": 21.9}

---

Overview of reported Activity across a group of molecules:
Assay: Aggregation property of the compound in potassium phosphate buffer assessed as particle size at 10 uM by DLS method
Format: physicochemical

{"Chemical Structure": "N#C/C(=C\\c1ccc(-c2ccc(-c3ccc(N(c4ccccc4)c4ccccc4)cc3)s2)s1)C(N)=O", "Activity (nm)": 1175}
{"Chemical Structure": "N#C/C(=C\\c1ccc(-c2ccc(-c3ccc(N(c4ccccc4)c4ccccc4)cc3)s2)s1)C(=O)O", "Activity (nm)": 175}

---

Assay: Aggregation property of the compound in potassium phosphate buffer assessed as particle size at 10 uM by DLS method
Type: physicochemical
Measurement Kind: Activity

{"Chemical Structure": "CC(C)(C)OC(=O)/C(C#N)=C/c1ccc(-c2ccc(-c3ccc(N(c4ccccc4)c4ccccc4)cc3)s2)s1", "Result": "Not Active"}
{"Chemical Structure": "COC(=O)/C(C#N)=C/c1ccc(-c2ccc(-c3ccc(N(c4ccccc4)c4ccccc4)cc3)s2)s1", "Result": "Not Active"}
{"Chemical Structure": "O=Cc1ccc(-c2ccc(-c3ccc(N(c4ccccc4)c4ccccc4)cc3)s2)s1", "Result": "Not Active"}
